Below, each entry is listed alongside its reported EC50.
Test system: Human immunodeficiency virus 1
ASSAY: Anti-HIV activity against HIV-1 3B strain infected in human MT4 cells assessed as inhibition of virus-induced cell death preincubated with compound for 1 hrs followed by viral infection and measured after 4 days by MTT assay
Format: functional, organism-based
MEASUREMENT CONDITIONS: Human immunodeficiency virus 1, 3B
Starred links: 1 amine or outer side, 2 acyl side, 3 side chain; linkers in the order of their positions; H or OH if unused. Non-standard residues stand in square brackets, D forms with d. Residues, ends and D or L forms follow the SMILES beside them. X3 = O=C([C@H](CCC1=CCC(F)(F)CC1)N[*:1])[*:2]; Trp(1-Me) = Cn1cc(C[C@H](N)C(=O)O)c2ccccc21; 1Nal = N[C@@H](Cc1cccc2ccccc12)C(=O)O; NHCH2CH2SCH2CO = O=C(CSCCN[*:1])[*:2]; NMeF = CN[C@@H](Cc1ccccc1)C(=O)O; hCha = N[C@@H](CCC1CCCCC1)C(=O)O; X2 = CC(C)(SCCN[*:1])C(=O)[*:2]; αMeP = C[C@@]1(C(=O)O)CCCN1
Please provide the amount together with its unit, number first.

Examples with their reported EC50 follow.
INSERT INTO assay_data (compound, measure_name, meas_value) VALUES
  ('CC(C)C[C@@H]1NC(=O)[C@H](C(C)C)NC(=O)[C@]2(C)CCCN2C(=O)[C@H](C(C)C)NC(=O)[C@H](Cc2ccccc2)NC(=O)CSCCNC(=O)[C@H](CC(C)C)NC(=O)[C@H](Cc2ccccc2)N(C)C(=O)[C@H](CC(C)C)NC(=O)[C@H](CCC2CCCCC2)NC1=O (cyclo(FV[αMeP]VL[hCha]L[NMeF]L[NHCH2CH2SCH2CO]))', 'EC50', '62 nM'),
  ('CC(C)C[C@@H]1NC(=O)[C@H](C(C)C)NC(=O)[C@]2(C)CCCN2C(=O)[C@H](C(C)C)NC(=O)[C@H](Cc2ccccc2)NC(=O)C(C)(C)SCCNC(=O)[C@H](C)NC(=O)[C@H](Cc2ccccc2)N(C)C(=O)[C@H](CC(C)C)NC(=O)[C@H](CCC2CCCCC2)NC1=O (cyclo(A[X2]FV[αMeP]VL[hCha]L[NMeF]))', 'EC50', '150 nM'),
  ('CC(C)C[C@@H]1NC(=O)[C@H](C(C)C)NC(=O)[C@@H]2CCCN2C(=O)[C@H](C(C)C)NC(=O)[C@H](Cc2ccccc2)NC(=O)CSCCNC(=O)[C@H](Cc2ccccc2)N(C)C(=O)[C@H](CC(C)C)NC(=O)[C@H](Cc2c[nH]c3ccccc23)NC1=O (cyclo(FVPVLWL[NMeF][NHCH2CH2SCH2CO]))', 'EC50', '610 nM'),
  ('CC(C)C[C@@H]1NC(=O)[C@H](C(C)C)NC(=O)[C@@H]2CCCN2C(=O)[C@H](C(C)C)NC(=O)[C@H](Cc2ccccc2)NC(=O)CSCCNC(=O)[C@H](Cc2ccccc2)N(C)C(=O)[C@H](CC(C)C)NC(=O)[C@H](Cc2cn(C)c3ccccc23)NC1=O (cyclo(FVPVL[Trp(1-Me)]L[NMeF][NHCH2CH2SCH2CO]))', 'EC50', '1500 nM'),
  ('CC(C)C[C@@H]1NC(=O)[C@H](C(C)C)NC(=O)[C@]2(C)CCCN2C(=O)[C@H](C(C)C)NC(=O)[C@H](Cc2ccccc2)NC(=O)CSCCNC(=O)[C@H](Cc2ccccc2)N(C)C(=O)[C@H](CC(C)C)NC(=O)[C@H](Cc2cccc3ccccc23)NC1=O (cyclo([1Nal]L[NMeF][NHCH2CH2SCH2CO]FV[αMeP]VL))', 'EC50', '30 nM');

Please examine the following record next.
Which EC50 value is on record for CC(C)C[C@@H]1NC(=O)[C@H](C(C)C)NC(=O)[C@]2(C)CCCN2C(=O)[C@H](C(C)C)NC(=O)[C@H](Cc2ccccc2)NC(=O)CSCCNC(=O)[C@H](Cc2ccccc2)N(C)C(=O)[C@H](CC(C)C)NC(=O)[C@H](CCC2=CCC(F)(F)CC2)NC1=O (cyclo(FV[αMeP]VL[X3]L[NMeF][NHCH2CH2SCH2CO])) ?
10 nM
